- measurement-target: Etv1 D387A (human, UniProt P50549 326-429, D387A)
- Sequence (P50549 326-429 D387A): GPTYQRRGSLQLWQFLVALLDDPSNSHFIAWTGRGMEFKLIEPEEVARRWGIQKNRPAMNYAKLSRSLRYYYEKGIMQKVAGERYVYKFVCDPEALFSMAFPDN
- method-summary: EMSA; 2 nM probe; 10 mM TCEP; EMSA: 50 mM Tris-HCl pH 7.5, 50 mM NaCl, 2 mM MgCl2, 0.01% Tween 20, 5% glycerol, 1 h at room temperature; proteins reduced with 10 mM TCEP unless stated; 10% native PAGE
- condition: protein: recombinant; tags: N-terminal His6 removed by TEV (leaves SM); blunt
value-type: Kd (nM)

1) Etv1ALF/Etv1ALR EMSA probe (dsDNA) DNA 1: ATCTCACCGGAAGTGTAGCA DNA 2: TGCTACACTTCCGGTGAGAT ... 0.17
